Target: T1, recombinant human RANTES (huRANTES, Peprotech) (human, UniProt P13501 24-91)
T1 sequence: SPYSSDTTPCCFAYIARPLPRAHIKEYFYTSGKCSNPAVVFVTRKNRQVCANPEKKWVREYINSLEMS
Test: cell-based or functional assay
measure name: Chemotaxis IC50 (nM), 1 nM huRANTES; L1.2-hCCR5 cells; IgG1 format
Number only, in nM; omit the unit.

Recorded Chemotaxis IC50 (nM), 1 nM huRANTES; L1.2-hCCR5 cells; IgG1 format, per entry:
4D8 antibody, IgG1 format (antibody, V domains shown) VH: QVQLVQSGAEVKKPGASVKVSCKVSGYTLNDFAMHWVRQAPGKGLEWMGGYVPEDGDTIYAQKFQGRVTMTEDTSTDTAYMELSSLRSEDTAVYYCATDPLYTPGLYVWGQGTTVTVSS VL: SYVLTQPPSVSVAPGQTARITCGGNNIESKSVHWYQQKPGQAPVLVVYDDSDRPSGIPERFSGSNSGNTATLTISRVEAGDEADYYCQVWDSNTDHWVFGGGTKVTVL	1.16
6A8 antibody, IgG1 format (antibody, V domains shown) VH: QVQLVQSGAEVKKPGASVKVSCKVSGYTLNDFAMHWVRQAPGKGLEWMGGYVPEDGDTIYAQKFQGRVTMTEDTSTDTAYMELSSLRSEDTAVYYCATDPLYPPGLQPWGQGTTVTVSS VL: SYVLTQPPSVSVAPGQTARITCGGNNIESKSVHWYQQKPGQAPVLVVYDDSDRPSGIPERFSGSNSGNTATLTISRVEAGDEADYYCQVWDSNTDHWVFGGGTKVTVL	0.74
E7 antibody, IgG1 format (antibody, V domains shown) VH: QVQLVQSGAEVKKPGSSVKVSCKISGGISDNYALSWVRQAPGQGLEWMGAVIPLVETTSYAQRFQGRLTITADDSLNTLYMELGSLRSDDTAMYYCAREQVAVGPGPTSNRGPDGLDVWGRGTMVTVSS VL: QSVLTQPPSVSGAPGQRVTISCTGSSSNIGDGYDVHWYQQLPGTAPKLLIYGNSNRPSGVPDRFSGSTSGTSASLAIRGLQSEDEADYYCGTWDDILNGWVFGGGTKLTVL	2.2
CG11 antibody, IgG1 format (antibody, V domains shown) VH: QVQLVQSGTEVKKPGATVNVSCKISGHLFTDYYIHWVQQAPGKGLEWVGLIDPKDGEIQYAEKFQARVTITADTSTDTVYMELNSLRSEDTAVYYCATEVLSGIRVFPFDPWGQGTLVTVSS VL: QSVLTQPPSVSGAPGQRVTISCTGSSSNIGAGYDVYWYQQFPGKAPKLLIYDTNNRPPGVPDRFSGSKSGTSASLAISGLQTEDEADYYCQSYDIALSNSNVVFGGGTKLTVL	4.8

Could you share which Chemotaxis IC50 (nM), 1 nM huRANTES; L1.2-hCCR5 cells; IgG1 format value was measured for 2D1 antibody, IgG1 format (antibody, V domains shown) VH: QVQLVQSGAEVKKPGASVKVSCKVSGYTLNDFAMHWVRQAPGKGLEWMGGYVPEDGDTIYAQKFQGRVTMTEDTSTDTAYMELSSLRSEDTAVYYCATDPLYSGSLSYWGQGTTVTVSS VL: SYVLTQPPSVSVAPGQTARITCGGNNIESKSVHWYQQKPGQAPVLVVYDDSDRPSGIPERFSGSNSGNTATLTISRVEAGDEADYYCQVWDSNTDHWVFGGGTKVTVL ?
1.7
